# Tested on: SCD1
# measurementProtocol: Measurement of SCD1 expression in SZ95-SCD1-HiBit cells (HiBiT assay)
# Assay type: cell-based
# cond: Homo sapiens; SZ95-SCD1-HiBit cells, 48 h, SCD1 protein production, luminescence; initial dilution 1:3 in DMSO; read-out: HiBit EC50
experimentalEndpoint: EC50 (nM)

                                   compound  resultnumber
0  O=C1N(Cc2nc(-c3ccc(Oc4ccccc4C(F)(F)F)c(C(F)(F)F)c3)no2)C(=O)C2(CCN(C3CCC3)CC2)N1CCC1CCOCC1         0.081
1  CC(C)CS(=O)(=O)c1ccccc1Oc1ccc(-c2noc(CN3C(=O)N(CCN4CCOCC4)C4(CCCCC4)C3=O)n2)cc1C(F)(F)F          1.24

P: CC(C)CS(=O)(=O)c1ccccc1Oc1ccc(-c2noc(CN3C(=O)N(CCN4CCOCC4)C4(CCN(C(=O)CCCCC(=O)O)CC4)C3=O)n2)cc1C(F)(F)F
Q: CC1(C)C(=O)N(Cc2nc(-c3ccc(Oc4ccccc4S(=O)(=O)CC4CCCOC4)c(C(F)(F)F)c3)no2)C(=O)N1CCN1CCOCC1 (stereo not shown)
R: CC1(C)C(=O)N(Cc2nc(-c3ccc(OCC(C)(C(F)(F)F)C(F)(F)F)c(C(F)(F)F)c3)no2)C(=O)N1CCN1CCOCC1
S: CC(C)CS(=O)(=O)c1ccccc1Oc1ccc(-c2noc(CN3C(=O)N(CCC4CCOCC4)C4(CCN(C(=O)c5cncnc5)CC4)C3=O)n2)cc1C(F)(F)F
T: CC(C)CS(=O)(=O)c1ccccc1Oc1ccc(-c2noc(CN3C(=O)N(CCCN4CCCC4)C(C)(C)C3=O)n2)cc1C(F)(F)F [Compound 50b]
Ask | List from greatest to least EC50. Rank them, then answer with their labels in that order.
Reply | T, Q, P, R, S

###

# System: SCD1
# measurementProtocol: Measurement of SCD1 expression in SZ95-SCD1-HiBit cells (HiBiT assay)
# Format: cell-based
# cond: Homo sapiens; SZ95-SCD1-HiBit cells, 48 h, SCD1 protein production, luminescence; initial dilution 1:3 in DMSO; read-out: HiBit EC50
# Text: Measurement of SCD1 Expression in SZ95-SCD1-HiBit Cells SCD1 expression levels in SZ95 cells were quantitated using the HiBiT system (Promega) in which a small peptide sequence (SmBiT) with a larger protein (LgBiT) reconstitutes luciferase activity and can generate a luminescent signal used for quantitation. […]
pEC50: −log10 of the molar value.
experimentalEndpoint: pEC50

Known results for molecules:
                                   molecule  assayedtarget  experimentalendpoint  resultnumber
0  CC(C)CS(=O)(=O)c1ccccc1Oc1ccc(-c2noc(CN3C(=O)N(CCN4CCOCC4)C4(CCN(C)CC4)C3=O)n2)cc1C(F)(F)F           SCD1                 pEC50         10.10
1  COCCS(=O)(=O)c1ccccc1Oc1ccc(-c2noc(CN3C(=O)N(CC4CC4)C(C)(C)C3=O)n2)cc1C(F)(F)F           SCD1                 pEC50          8.41
2  CC(C)CS(=O)(=O)c1ccccc1Oc1ccc(-c2noc(CN3C(=O)N(CCN4CCOCC4)C4(CCN(Cc5ccc(O)cc5)CC4)C3=O)n2)cc1C(F)(F)F           SCD1                 pEC50         10.11

a: CC(C)CS(=O)(=O)c1ccccc1Oc1ccc(-c2noc(CN3C(=O)N(CCN4CCOCC4)C(C)(CO)C3=O)n2)cc1C(F)(F)F (stereo not shown)
b: O=C1N(Cc2nc(-c3ccc(Oc4ccccc4C(F)(F)F)c(C(F)(F)F)c3)no2)C(=O)C2(CCN(C3CCC3)CC2)N1CCN1CCOCC1
c: CC(C)N(C)S(=O)(=O)c1ccccc1Oc1ccc(-c2noc(CN3C(=O)N(CCC4CCOCC4)C(C)(C)C3=O)n2)cc1C(F)(F)F
d: CC(C)CS(=O)(=O)c1ccccc1Oc1ccc(-c2noc(CN3C(=O)N(CCN4CCOCC4)C(C)(C)C3=O)n2)cc1C(F)(F)F
Ask | List from greatest to least pEC50. Rank them, then answer with their labels in that order.
Reply | c, b, d, a
(c: 10.25, b: 9.99, d: 9.66, a: 8.22)

###

# Test system: SCD1
# measurementProtocol: Measurement of SCD1 expression in SZ95-SCD1-HiBit cells (HiBiT assay)
# Type: cell-based
# cond: Homo sapiens; SZ95-SCD1-HiBit cells, 48 h, SCD1 protein production, luminescence; initial dilution 1:3 in DMSO; read-out: HiBit EC50
experimentalEndpoint: EC50 (nM)

Known results for compounds:
compound	experimentalEndpoint	resultNumber
CS(=O)(=O)c1ccccc1Oc1ccc(-c2noc(CN3C(=O)N(CCN4CCOCC4)C4(CCN(C5CCC5)CC4)C3=O)n2)cc1C(F)(F)F [Compound 15]	EC50	0.101
O=C1N(Cc2nc(-c3ccc(Oc4ccccc4S(=O)(=O)CC4CCCO4)c(C(F)(F)F)c3)no2)C(=O)C2(CCN(C3CCC3)CC2)N1CCN1CCOCC1 (stereo not shown) [Compound 18]	EC50	0.133

P: CC1(C)C(=O)N(Cc2nc(-c3ccc(Oc4ccccc4C(F)(F)F)c(C(F)(F)F)c3)no2)C(=O)N1CCN1CCOCC1 [Compound 41]
Q: O=C(O)CCCCC(=O)N1CCC2(CC1)C(=O)N(Cc1nc(-c3ccc(Oc4ccccc4C(F)(F)F)c(C(F)(F)F)c3)no1)C(=O)N2CCN1CCOCC1 [Compound 69]
R: CC(C)(C)c1ccccc1Oc1ccc(-c2noc(CN3C(=O)N(CCN4CCOCC4)C4(CCN(C5CCC5)CC4)C3=O)n2)cc1C(F)(F)F [Compound 16]
S: CC(C)CS(=O)(=O)c1ccccc1Oc1ccc(-c2noc(CN3C(=O)N(CCN4CCOCC4)C4(CCC4)C3=O)n2)cc1C(F)(F)F [Compound 45]
T: CC(COc1ccc(-c2noc(CN3C(=O)N(CCN4CCOCC4)C4(CCN(C(=O)c5cncnc5)CC4)C3=O)n2)cc1C(F)(F)F)(C(F)(F)F)C(F)(F)F [Compound 30]
Ask | List from greatest to least EC50. Rank them, then answer with their labels in that order.
Reply | S, T, Q, P, R
